For each entry below, report its cell viability value.
- System: P12-Ichikawa
- ASSAY REMARKS: cell viability relative to DMSO control; higher = less cytotoxic
- DETAILS: RPMI 5 mM glucose + 10% FBS; 48 h; 0.000781 µM
Enter your answer as a number in %; do not include the unit.

Give its cell viability value. Item: `O=C1NC(=O)/C(=C/c2ccc3nccnc3c2)S1`
110

Give its cell viability value. Item: `Cc1cc(Nc2cc(N3CCN(C)CC3)nc(/C=C/c3ccccc3)n2)n[nH]1`
113

Give its cell viability value. Item: `c1cc(-c2cnn3cc(-c4ccc(OCCN5CCCCC5)cc4)cnc23)ccn1`
83.8

Give its cell viability value. Item: `CC1(C)SCCN([S+](=O)([O-])c2ccc(OCC#CCO)cc2)[C@H]1C(=O)NO`
106

Give its cell viability value. Item: `CC1(C)CC\C2=C(/O1)C3=C(C=CC=C3)C(=O)C2=O`
113

Give its cell viability value. Item: `CC(C)(N)c1ccc(-c2nc3ccccc3nc2-c2ccccc2)cc1`
96.3

Give its cell viability value. Item: `Cc1cc(Nc2ncc3c(n2)N(C)C(=O)N(c2cc(NC(=O)c4cccc(C(F)(F)F)c4)ccc2C)C3)n(C)n1`
106

====

- Test system: SEM cells
- ASSAY REMARKS: cell viability relative to DMSO control; higher = less cytotoxic
- DETAILS: RPMI 5 mM glucose + 10% dialyzed FBS; 48 h; 0.0632 µM
PROPERTY NAME: cell viability (%)
Enter your answer as a number in %; do not include the unit.

What value of cell viability on SEM cells does `COCCn1c2c([n+](Cc3cnccn3)c1C)C(=O)c1ccccc1C2=O` have?
46.2

What value of cell viability on SEM cells does `COc1cc(C(=O)NC2CCN(C)CC2)ccc1Nc1ncc2c(n1)N(C1CCCC1)CCC(=O)N2C(C)C` have?
112

What value of cell viability on SEM cells does `CCCOc1ccc(C(=O)OCCN(CC)CC)cc1N` have?
99.3

What value of cell viability on SEM cells does CCC(CCCC)COC(=O)C(\C#N)=C(\c1ccccc1)c2ccccc2 (stereo not drawn) have?
99.9

What value of cell viability on SEM cells does `O=C(O)c1ccc(O)c2ncc(N3CCOCC3)cc12` have?
95

What value of cell viability on SEM cells does `Cc1cc(Nc2ncc3c(n2)N(C)C(=O)N(c2cc(NC(=O)c4cccc(C(F)(F)F)c4)ccc2C)C3)n(C)n1` have?
128

What value of cell viability on SEM cells does `CC(=O)SC[C@@H](C)C(=O)N1CCC[C@H]1C(=O)N[C@@H](Cc1ccccc1)C(=O)O` have?
104

What value of cell viability on SEM cells does `O=C(c1cncc(Br)c1)N1CCC(N2CCCC2)CC1` have?
99

====

- System: SEM cells
- ASSAY REMARKS: cell viability relative to DMSO control; higher = less cytotoxic
- DETAILS: HPLM + 10% dialyzed FBS; 48 h; 0.000781 µM
For each entry below, report its cell viability value.
Enter your answer as a number in %; do not include the unit.

What value of cell viability on SEM cells does `N[S+](=O)([O-])c1ccc(Nc2nc(OCC3CCCCC3)c3[nH]cnc3n2)cc1` have?
103

What value of cell viability on SEM cells does `COc1cc(C(=O)NC2CCN(C)CC2)ccc1Nc1ncc2c(n1)N(C1CCCC1)CCC(=O)N2C(C)C` have?
81.4

What value of cell viability on SEM cells does COc1cc2nc(N3CCN(C(=O)C4COc5ccccc5O4)CC3)nc(N)c2cc1OC (centres undefined) have?
123

What value of cell viability on SEM cells does C[C@]12CCC3c4ccc(O)cc4CCC3C1CCC2=O (some centres undefined) have?
70.1

What value of cell viability on SEM cells does `O=C1NC(=O)/C(=C/c2ccc3nccnc3c2)S1` have?
117

What value of cell viability on SEM cells does `CC/C=C\C[C@H]1C(=O)CC[C@@H]1CC(=O)OC` have?
76

What value of cell viability on SEM cells does `CN(C)c1nc(Cc2ccc(NC(=O)c3ccc(C(F)(F)F)cc3)cc2)nc(N(C)C)c1CC(=O)O` have?
104

What value of cell viability on SEM cells does `NC(=O)c1cccc(-c2cc(Nc3ccc(OC(F)(F)F)cc3)ncn2)c1` have?
82.4

What value of cell viability on SEM cells does `COc1c(Cl)cc2c([nH]c3cnccc32)c1NC(=O)c1cccnc1C` have?
100

What value of cell viability on SEM cells does `CCCCc1ccc2[nH]c(NC(=O)OC)nc2c1` have?
75.4

What value of cell viability on SEM cells does `NC(=O)c1cnccn1` have?
104

What value of cell viability on SEM cells does CCC(C)CCCCC(=O)N[C@@H](CCN)C(=O)NC(C(=O)N[C@H](CCN)C(=O)N[C@@H]1CCNC(=O)C([C@@H](C)O)NC(=O)[C@@H](CCN)NC(=O)[C@@H](CCN)NC(=O)[C@@H](CC(C)C)NC(=O)[C@H](Cc2ccccc2)NC(=O)[C@H](CCN)NC1=O)[C@@H](C)O (some centres undefined) have?
81.6

What value of cell viability on SEM cells does CC(C(C)N1CC(=O)NC(=O)C1)N1CC(=O)NC(=O)C1 (centres undefined) have?
97.2

What value of cell viability on SEM cells does `CN1C(=O)c2sccc2N(C)c2nc(Nc3ccc([S+](N)(=O)[O-])cc3)ncc21` have?
94.1

====

For each entry below, report its cell viability value.
- Tested on: NOMO1
- ASSAY REMARKS: cell viability relative to DMSO control; higher = less cytotoxic
- DETAILS: RPMI 5 mM glucose + 10% FBS; 48 h; 0.000781 µM
Enter your answer as a number in %; do not include the unit.

Give its cell viability value. Item: `COc1cc(NCc2ccc3nc(N)nc(N)c3c2C)cc(OC)c1OC`
79.3

Give its cell viability value. Item: `CCn1nnc2c(N3CCOCC3)nc(-c3ccc(NC(=O)Nc4ccc(C(=O)N5CCN(C)CC5)cc4)cc3)nc21`
90.8

Give its cell viability value. Item: `O=C(c1cncc(Br)c1)N1CCC(N2CCCC2)CC1`
93.5

Give its cell viability value. Item: `COc1c(Cl)cc2c([nH]c3cnccc32)c1NC(=O)c1cccnc1C`
99.8

Give its cell viability value. Item: `CC1(C)CC\C2=C(/O1)C3=C(C=CC=C3)C(=O)C2=O`
113

Give its cell viability value. Item: `COc1ccc(CCC(=O)c2c(O)cc(O[C@@H]3O[C@H](CO)[C@@H](O)[C@H](O)[C@H]3O[C@@H]3O[C@@H](C)[C@H](O)[C@@H](O)[C@H]3O)cc2O)cc1O`
118

Give its cell viability value. Item: `COc1ccccc1[C@H](c1cccc2ccccc12)[C@@](C)(C#N)C(=O)N1CCC(c2cccc(C(F)(F)F)c2)CC1`
102

Give its cell viability value. Item: `Nc1n[nH]c2nnc(-c3c(-c4ccccc4)nn4ccccc34)cc12`
116

Give its cell viability value. Item: `CN1C(=O)c2sccc2N(C)c2nc(Nc3ccc([S+](N)(=O)[O-])cc3)ncc21`
97.2

Give its cell viability value. Item: `CC(=O)SC[C@@H](C)C(=O)N1CCC[C@H]1C(=O)N[C@@H](Cc1ccccc1)C(=O)O`
93.5

====

For each entry below, report its cell viability value.
- Tested on: NOMO1
- ASSAY REMARKS: cell viability relative to DMSO control; higher = less cytotoxic
- DETAILS: HPLM + 10% dialyzed FBS; 48 h; 0.19 µM
Don't forget the unit after the value.

Give its cell viability value. Item: `CCCN[C@H]1CCc2nc(N)sc2C1`
102%

Give its cell viability value. Item: `CC(C)(N)c1ccc(-c2nc3ccccc3nc2-c2ccccc2)cc1`
22.3%

Give its cell viability value. Item: `COc1cc(C(=O)NC2CCN(C)CC2)ccc1Nc1ncc2c(n1)N(C1CCCC1)CCC(=O)N2C(C)C`
112%

====

- System: SEM cells
- ASSAY REMARKS: cell viability relative to DMSO control; higher = less cytotoxic
- DETAILS: HPLM + 10% dialyzed FBS; 48 h; 0.00234 µM
PROPERTY NAME: cell viability (%)
Enter your answer as a number in %; do not include the unit.

Give its cell viability value. Item: `CCCCCNC(=N)N/N=C/c1c[nH]c2ccc(OC)cc12`
119

Give its cell viability value. Item: `NC(=O)N/N=C/c1ccc([N+](=O)[O-])o1`
120

Give its cell viability value. Item: `C[C@@H]1CC[C@@]2(CC[C@]3(C)\C(=C/C[C@@H]4[C@@]5(C)CC[C@H](O)C(C)(C)[C@@H]5CC[C@@]34C)[C@@H]2[C@H]1C)C(O)=O`
109

====

- System: P12-Ichikawa
- ASSAY REMARKS: cell viability relative to DMSO control; higher = less cytotoxic
- DETAILS: HPLM + 10% dialyzed FBS; 48 h; 0.0211 µM
PROPERTY NAME: cell viability (%)
Enter your answer as a number in %; do not include the unit.

Give its cell viability value. Item: `O=C(O)CCCCCC(=O)NN=C1CCCC1`
108

Give its cell viability value. Item: C[C@]12CCC3c4ccc(O)cc4CCC3C1CCC2=O (some centres not stated)
98.9

Give its cell viability value. Item: `Cc1ccc([C@@H]2O[C@H](CO)[C@@H](O)[C@H](O)[C@H]2O)cc1Cc1ccc(-c2ccc(F)cc2)s1`
116

Give its cell viability value. Item: `COCCn1c2c([n+](Cc3cnccn3)c1C)C(=O)c1ccccc1C2=O`
112

Give its cell viability value. Item: `C[C@H](CCC(=O)O)[C@H]1CC[C@H]2[C@@H]3[C@H](O)C[C@@H]4C[C@H](O)CC[C@]4(C)[C@H]3CC[C@]12C`
92.4

Give its cell viability value. Item: `CCn1nnc2c(N3CCOCC3)nc(-c3ccc(NC(=O)Nc4ccc(C(=O)N5CCN(C)CC5)cc4)cc3)nc21`
92.6

Give its cell viability value. Item: `CN1CCc2c(c3ccccc3n2Cc2ccc(C(=O)NO)cc2)C1`
89.6

Give its cell viability value. Item: `CO[C@@H](C(=O)N1Cc2[nH]nc(NC(=O)c3ccc(N4CCN(C)CC4)cc3)c2C1)c1ccccc1`
95.9

Give its cell viability value. Item: `Cc1ccc2nc(NCCN)c3ncc(C)n3c2c1`
101

Give its cell viability value. Item: `CN(C)c1nc(Cc2ccc(NC(=O)c3ccc(C(F)(F)F)cc3)cc2)nc(N(C)C)c1CC(=O)O`
104

Give its cell viability value. Item: `CC(=O)OC[C@@H]1O[C@H]([C@H](OC(C)=O)[C@@H]1OC(C)=O)N2\C=C/C(=O)NC2=O`
122

Give its cell viability value. Item: `CNC[C@H](O)[C@@H](O)[C@H](O)[C@H](O)CO`
130
